Each recorded value in this set is attributed to paper PMC6522510.

tested on: CMS; set-up: species or system AML cell lines (8); Primary HTS, single concentration about 10 uM, Cell Titer Glo viability; log10 luminescence, per cent inhibition relative to cycloheximide control; conditions: 72 h, relative to cycloheximide control, log10 luminescence, inhibitor, CMS %inh, 10 µM
Counter-ions that a name gives are not always drawn.
Let's look at some compounds and their measured CMS %inh.
// note: answer is a bare numeric in %

Reference set (4 entries):
Compound	Units text	CMS %inh
C[C@H]1O[C@@H](O[C@H]2[C@@H](O)C[C@H](O[C@H]3[C@@H](O)C[C@H](O[C@H]4CC[C@@]5(C)[C@H](CC[C@@H]6[C@@H]5C[C@@H](O)[C@]5(C)[C@@H](C7=CC(=O)OC7)CC[C@]65O)C4)O[C@@H]3C)O[C@@H]2C)C[C@H](O)[C@@H]1O	%	96.75
CCOC(=O)C1=C(C)NC(C)=C(C(=O)OCC)C1c1ccccc1/C=C/C(=O)OC(C)(C)C	%	-2.509
COc1ccc2cc(CCC(C)=O)ccc2c1	%	-2.394
CN1CCC(C(=O)Nc2n[nH]c3nc(-c4ccc(O)cc4)c(Br)cc23)CC1	%	94.2

# query: CMS %inh of entry CN[C@@H]1[C@H](O[C@H]2[C@H](O[C@H]3[C@H](O)[C@@H](O)[C@H](N=C(N)N)[C@@H](O)[C@@H]3N=C(N)N)O[C@@H](C)[C@]2(O)C=O)O[C@@H](CO)[C@H](O)[C@H]1O [SJ000285297-4, STREPTOMYCIN SULFATE]
-1.268

And then CCOC(=O)C1=C(C)NC(C)=C(C(=O)OC)C1c1cccc(Cl)c1Cl (single isomer, unassigned) , what is it?
-2.469

====

Let's look at some molecules and their measured CMK %inh.
system: CMK; set-up: species or system AML cell lines (8); Primary HTS, single concentration about 10 uM, Cell Titer Glo viability; log10 luminescence, per cent inhibition relative to cycloheximide control; conditions: 72 h, relative to cycloheximide control, log10 luminescence; inhibitor
// note: answer is a bare numeric in %

Reference set (3 entries):
Molecule	Recorded value
Cn1c(=O)c(Oc2ccccc2)cc2cnc(NC3CCOCC3)nc21 [SJ000581171-1]	8.741
CNC(=O)c1sc(-n2cnc3cc(OC)c(OC)cc32)cc1OCc1ccccc1C(F)(F)F [SJ000573306-1, U22436/130/1]	19.06
CCn1c(-c2nonc2N)nc2cncc(C(=O)N3CCNCC3)c21 [SJ000573047-1, TP100582-069A1]	-1.515

# query: CMK %inh of entry c1cnn2ncc(-c3ccnc(Nc4ccc5c(c4)OCCO5)n3)c2c1 [SJ000573318-1, U18020/87/1]
109.1

And then CNC(=O)c1cncc(/C=C/c2c(C)cccc2C)c1 [SJ000573249-1, U12068/55/2] , what is it?
2.958

And then CCCn1cc(C2=C(c3cn(C)c4ccccc34)C(=O)NC2=O)c2ccccc21 [SJ000580980-1] , what is it?
44.58

And then O=C1NC(=NCCc2ccccc2Cl)S/C1=C\c1ccc2ncccc2c1 [SJ000581034-1] , what is it?
-2.328

And then CC(=O)OCC(CCn1cnc2cnc(N)nc21)COC(C)=O [SJ000286077-3, FAMCICLOVIR] , what is it?
3.857

And then O=C(Nc1n[nH]c2cc(-c3cc(F)ccc3F)ccc12)C1CC1 [SJ000573189-1, VB100064-133A2] , what is it?
46.32

And then CNCC1CCn2c(c(C3=C(c4cn(C)c5ccccc45)C(=O)NC3=O)c3ccccc32)C1 (stereo not shown) [SJ000581026-1] , what is it?
19.67

And then NS(=O)(=O)c1ccc(-c2cc3ccncc3cc2OCc2ccccc2)cc1 [SJ000573084-1, R12606/136/38] , what is it?
-0.9682

And then Nc1c(C(=O)c2cccc(-c3ccc[n+]([O-])c3)c2)cnn1-c1ccc(F)cc1F [SJ000581156-1] , what is it?
6.727
